- STUDY_TARGET: Tyrosine-protein kinase JAK3 (Homo sapiens, UniProt P52333)
- Sequence (P52333 whole entry): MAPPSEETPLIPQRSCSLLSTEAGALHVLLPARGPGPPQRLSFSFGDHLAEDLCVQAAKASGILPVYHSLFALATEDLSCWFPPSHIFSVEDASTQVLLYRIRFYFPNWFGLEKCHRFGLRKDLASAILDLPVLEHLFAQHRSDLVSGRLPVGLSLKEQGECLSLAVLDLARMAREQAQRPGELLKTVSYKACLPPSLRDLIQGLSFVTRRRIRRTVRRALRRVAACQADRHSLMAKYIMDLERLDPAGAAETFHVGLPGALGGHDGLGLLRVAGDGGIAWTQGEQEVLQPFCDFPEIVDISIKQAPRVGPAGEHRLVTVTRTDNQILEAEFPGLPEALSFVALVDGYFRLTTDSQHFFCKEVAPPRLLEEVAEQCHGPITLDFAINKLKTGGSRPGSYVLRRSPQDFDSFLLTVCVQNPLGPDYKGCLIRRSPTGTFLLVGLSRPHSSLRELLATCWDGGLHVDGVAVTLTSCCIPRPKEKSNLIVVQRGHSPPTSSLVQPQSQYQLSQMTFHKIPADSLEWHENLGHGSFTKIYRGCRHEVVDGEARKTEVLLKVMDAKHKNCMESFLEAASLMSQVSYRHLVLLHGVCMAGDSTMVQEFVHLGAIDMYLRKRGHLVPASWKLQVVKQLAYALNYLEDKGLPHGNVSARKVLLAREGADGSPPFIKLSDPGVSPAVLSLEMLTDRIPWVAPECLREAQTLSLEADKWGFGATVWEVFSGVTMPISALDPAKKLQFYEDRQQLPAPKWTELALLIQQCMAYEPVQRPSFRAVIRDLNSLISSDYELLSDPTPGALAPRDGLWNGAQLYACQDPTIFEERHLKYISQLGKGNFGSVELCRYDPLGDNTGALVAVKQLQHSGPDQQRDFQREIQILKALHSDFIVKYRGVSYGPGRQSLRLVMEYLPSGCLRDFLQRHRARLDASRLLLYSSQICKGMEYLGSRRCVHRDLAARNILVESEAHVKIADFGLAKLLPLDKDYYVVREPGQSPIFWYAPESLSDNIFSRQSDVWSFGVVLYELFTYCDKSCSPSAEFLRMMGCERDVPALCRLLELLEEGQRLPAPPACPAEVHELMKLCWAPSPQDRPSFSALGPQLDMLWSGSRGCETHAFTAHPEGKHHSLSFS
- EXPERIMENT_NOTES: Inhibition of recombinant human JAK3 using Ulight-CAGAGAIETDKEYYTVKD as substrate measured after 60 mins by LANCE assay
MEASUREMENT_TYPE: IC50 (nM)

MOLECULE_SMILES: O=C(CCCCCn1cc(Nc2ncc(Cl)c(Nc3ccc(Cl)cc3)n2)cn1)NO
STUDY_TARGET: Tyrosine-protein kinase JAK3 (Homo sapiens, UniProt P52333)
IC50 / nM: 7.4
--
MOLECULE_SMILES: O=C(CCCCCCn1cc(Nc2ncc(Cl)c(Nc3cccc(Cl)c3)n2)cn1)NO
STUDY_TARGET: Tyrosine-protein kinase JAK3 (Homo sapiens, UniProt P52333)
IC50 / nM: 3.3

(I) O=C(CCCCCCn1cc(Nc2ncc(Cl)c(N3CCCCC3)n2)cn1)NO
(II) O=C(CCCCCCn1cc(Nc2ncc(Cl)c(Nc3ccc(Cl)cc3)n2)cn1)NO
(III) O=C(CCCCCCn1cc(Nc2ncc(Cl)c(NC3CC3)n2)cn1)NO
stdin: Order the records, beginning with the lowest IC50 and ending with the highest. // list labels; follow requested order
stdout: III, I, II
(III: 2 nM, I: 3.7 nM, II: 7.6 nM)

* * *

Recorded Activity for the following molecules
- Test system: K562
- EXPERIMENT_NOTES: Induction of apoptosis in human K562 cells assessed as early apoptotic cells at 1 uM after 24 hrs by Annexin-V/propidium iodide staining-based flow cytometric analysis (reference value: 7.55%)
- Assay type: functional
All answers are understood in %, so give the number only.

Recorded Activity, per entry:
MOLECULE_SMILES: O=C(CCCCCn1cc(Nc2ncc(Cl)c(Nc3ccc(Cl)cc3)n2)cn1)NO
MEASUREMENT_TYPE: Activity
UNIT_TEXT: %
OBSERVED_MEASUREMENT: 34.4
--
MOLECULE_SMILES: O=C(CCCCCCn1cc(Nc2ncc(Cl)c(Nc3cccc(Cl)c3)n2)cn1)NO
MEASUREMENT_TYPE: Activity
UNIT_TEXT: %
OBSERVED_MEASUREMENT: 15.3

stdin: Field: Activity (K562). Entry: N#CC[C@H](C1CCCC1)n1cc(-c2ncnc3[nH]ccc23)cn1
stdout: 9.22

* * *

- STUDY_TARGET: Tyrosine-protein kinase JAK2 (Homo sapiens)
- Sequence (O60674 whole entry): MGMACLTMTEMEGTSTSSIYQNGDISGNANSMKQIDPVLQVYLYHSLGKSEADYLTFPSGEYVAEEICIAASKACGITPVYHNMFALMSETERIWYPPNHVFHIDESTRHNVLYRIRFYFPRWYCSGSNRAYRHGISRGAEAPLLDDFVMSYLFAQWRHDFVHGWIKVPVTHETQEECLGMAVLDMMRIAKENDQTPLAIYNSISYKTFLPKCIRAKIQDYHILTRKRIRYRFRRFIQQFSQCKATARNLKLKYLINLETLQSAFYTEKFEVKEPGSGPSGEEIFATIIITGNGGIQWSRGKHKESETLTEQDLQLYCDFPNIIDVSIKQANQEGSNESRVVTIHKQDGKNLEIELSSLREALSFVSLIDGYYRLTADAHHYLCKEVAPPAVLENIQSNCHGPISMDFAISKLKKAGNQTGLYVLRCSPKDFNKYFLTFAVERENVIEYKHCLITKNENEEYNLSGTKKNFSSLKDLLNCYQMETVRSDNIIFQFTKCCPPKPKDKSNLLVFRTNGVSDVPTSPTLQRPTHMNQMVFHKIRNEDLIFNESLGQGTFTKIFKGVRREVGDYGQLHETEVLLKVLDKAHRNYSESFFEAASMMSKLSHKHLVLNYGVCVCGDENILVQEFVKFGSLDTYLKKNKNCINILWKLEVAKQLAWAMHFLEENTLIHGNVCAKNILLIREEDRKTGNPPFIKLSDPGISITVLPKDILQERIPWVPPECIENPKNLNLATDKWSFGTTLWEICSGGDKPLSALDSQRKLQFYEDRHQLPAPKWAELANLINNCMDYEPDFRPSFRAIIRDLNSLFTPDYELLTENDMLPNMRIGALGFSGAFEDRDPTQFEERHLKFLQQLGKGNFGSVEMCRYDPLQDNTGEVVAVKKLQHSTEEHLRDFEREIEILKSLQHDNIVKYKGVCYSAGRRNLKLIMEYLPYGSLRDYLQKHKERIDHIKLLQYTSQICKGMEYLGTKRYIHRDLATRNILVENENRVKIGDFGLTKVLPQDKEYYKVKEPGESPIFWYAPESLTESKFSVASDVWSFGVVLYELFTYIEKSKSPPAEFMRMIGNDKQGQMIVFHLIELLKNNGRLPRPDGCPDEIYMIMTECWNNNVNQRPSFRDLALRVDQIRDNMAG
- EXPERIMENT_NOTES: Inhibition of recombinant human JAK2 using Ulight-CAGAGAIETDKEYYTVKD as substrate measured after 60 mins by LANCE assay
MEASUREMENT_TYPE: IC50 (nM)

(1) CCCNc1nc(Nc2cnn(CCCCCCC(=O)NO)c2)ncc1Cl
(2) O=C(CCCCCCn1cc(Nc2ncc(Cl)c(Nc3ccc(Cl)cc3)n2)cn1)NO
(3) O=C(CCCCCn1cc(Nc2ncc(Cl)c(Nc3cccc(Cl)c3)n2)cn1)NO
(4) O=C(CCCCn1cc(Nc2ncc(Cl)c(Nc3ccc(F)cc3)n2)cn1)NO
stdin: Consider the compounds listed above. Rank them by IC50 in ascending numerical order. // list labels; follow requested order
stdout: 3, 2, 1, 4

Where do these numbers come from? They come from ChEMBL document CHEMBL4346670.
